biological target: Recombinant Human ENPP-2/Autotaxin (Homo sapiens, UniProt Q13822); test: LysoPLD activity measurement (autotaxin enzyme inhibition, choline release, TOOS reagent); conditions: LysoPLD inhibitory activity; substrate 14:0 LysoPC; absorbance at 555 nm
Readings of IC50 for the listed compounds

Solved cases below.
compound | recorded result
O=C(O)c1cccc(C2(n3c(=O)n(-c4ccc(N5CC6(COC6)C5)cc4)c4cc(Cl)ccc43)CC2)c1 [Example 149] | < 10 nM
O=C(O)c1cccc(C2(n3c(=O)n(-c4ccc(C(=O)N5CCCCC5)cc4)c4cc(Cl)ccc43)CC2)c1F [Example 68] | < 10 nM
O=C(O)c1cccc(Cn2c(=O)n(-c3ccc(C4=CCOC4)cc3)c3cc(Cl)ccc32)c1F [Example 110] | 10 to 100 nM

[ask] What does the data say about its IC50? Entry: O=C(O)c1cccc(Cn2c(=O)n(-c3ccccc3)c3cc(Cl)ccc32)c1 [Example 1]
[reply] 100 to 1000 nM

[ask] What does the data say about its IC50? Entry: O=C(O)c1cccc(Cn2c(=O)n(-c3ccc(N4CCN(C(=O)C5CCC(F)(F)CC5)CC4)cc3)c3cc(Cl)ccc32)c1F [Example 143]
[reply] 10 to 100 nM

[ask] What does the data say about its IC50? Entry: O=C(O)c1cccc(C2(n3c(=O)n(-c4ccc(N5CCC(F)(F)C5)nc4)c4cc(Cl)ccc43)CC2)c1 [Example 165]
[reply] < 10 nM

[ask] What does the data say about its IC50? Entry: O=C(O)c1cccc(C2(n3c(=O)n(-c4ccc(N5CCOCC5)cc4)c4cc(Cl)cnc43)CC2)c1 [Example 222]
[reply] < 10 nM

---

molecular target: Recombinant Human ENPP-2/Autotaxin (Homo sapiens); assay: LysoPLD activity measurement (autotaxin enzyme inhibition, choline release, TOOS reagent); conditions: LysoPLD inhibitory activity; substrate 14:0 LysoPC; absorbance at 555 nm
pIC50: −log10 of the molar value.
Readings of pIC50 for the listed compounds

compound | pIC50
O=C1COc2cc(-n3c(=O)n(C4(c5cc(F)cc(C(=O)O)c5)CC4)c4ccc(Cl)cc43)ccc2N1 [Example 254] | > 8.00
CN(C)C(=O)c1ccc(-n2c(=O)n(C3(c4cc(F)cc(C(=O)O)c4)CC3)c3ncc(Cl)cc32)cc1 [Example 272] | > 8.00
O=C(O)c1cc(Cn2c(=O)n(-c3ccc(N4CCOCC4)cc3)c3c(F)c(Cl)ccc32)cc(F)c1F [Example 202] | 7.00 to 8.00
CSc1ccc(-n2c(=O)n(Cc3cccc(C(=O)O)c3F)c3ccc(Cl)cc32)cc1 [Example 55] | 7.00 to 8.00
CN(C)c1ccc(-n2c(=O)n(C3(c4cccc(C(=O)O)c4)CC3)c3ccc(Cl)cc32)cc1 [Example 69] | > 8.00

[ask] What does the data say about its pIC50? Entry: O=C(O)c1cccc(C2(n3c(=O)n(-c4ccc(C(=O)N5CC6(COC6)C5)cc4)c4cc(Cl)cnc43)CC2)c1F [Example 233]
[reply] 7.00 to 8.00

[ask] What does the data say about its pIC50? Entry: CN(C)C(=O)c1ccc(-n2c(=O)n(CCc3cccc(C(=O)O)c3)c3ccc(Cl)cc32)cc1 [Example 113]
[reply] 6.00 to 7.00

---

target: Recombinant Human ENPP-2/Autotaxin (Homo sapiens, UniProt Q13822); test: LysoPLD activity measurement (autotaxin enzyme inhibition, choline release, TOOS reagent); conditions: LysoPLD inhibitory activity; substrate 14:0 LysoPC; absorbance at 555 nm
pIC50: −log10 of the molar value.
measurement kind: pIC50

Solved cases below.
compound | system tested | measurement kind | recorded result
CN(C)c1ccc(-n2c(=O)n(C3(c4cc(F)cc(C(=O)O)c4)CC3)c3ccc(Cl)cc32)cc1 [Example 188] | Recombinant Human ENPP-2/Autotaxin (Homo sapiens, UniProt Q13822) | pIC50 | > 8.00
CN(C)c1ccc(-n2c(=O)n(C(C)(C)c3cccc(C(=O)O)c3)c3ccc(Cl)cc32)cc1 [Example 153] | Recombinant Human ENPP-2/Autotaxin (Homo sapiens, UniProt Q13822) | pIC50 | 7.00 to 8.00

[ask] What does the data say about its pIC50? Entry: CN(C)c1ccc(-n2c(=O)n(Cc3cc(F)cc(C(=O)O)c3)c3c(F)cc(Cl)cc32)cc1 [Example 65]
[reply] 7.00 to 8.00

[ask] What does the data say about its pIC50? Entry: O=C(O)c1cccc(Cn2c(=O)n(-c3ccc(N4CCOCC4)cc3)c3c(F)c(Cl)ccc32)n1 [Example 52]
[reply] 7.00 to 8.00

[ask] What does the data say about its pIC50? Entry: O=C(O)c1cccc(C2(n3c(=O)n(-c4ccc(C5CCN(C6COC6)CC5)cc4)c4cc(Cl)ccc43)CC2)c1 [Example 260]
[reply] > 8.00

[ask] What does the data say about its pIC50? Entry: O=C(O)c1cccc(Cn2c(=O)n(-c3ccc(N4CCN(C(=O)C5CC5)CC4)cc3)c3cc(Cl)ccc32)c1F [Example 140]
[reply] 7.00 to 8.00

[ask] What does the data say about its pIC50? Entry: CCCn1cc(-n2c(=O)n(Cc3cccc(C(=O)O)c3)c3ccc(Cl)cc32)cn1 [Example 84]
[reply] 6.00 to 7.00
